Target System: MAGI3_2, Q5TCQ9
Sequence (Q5TCQ9 398-503): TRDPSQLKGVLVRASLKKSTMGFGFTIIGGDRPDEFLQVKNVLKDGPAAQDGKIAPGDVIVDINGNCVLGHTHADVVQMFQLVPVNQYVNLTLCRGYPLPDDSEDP
Assay Protocol: holdup assay
Parameters: key: below the threshold = too weak to quantify, mostly under pKd 3.1 to 4
Condition Description: plain residues with an end cap or a label only (N-terminal biotin on a linker: ahx)

# Binder, pKd
measured = [
    ("GYDWGPATDL [TJP3, O95049]", "below the threshold"),
    ("RAVEEEESRF [PSCDBP, O60759]", "below the threshold"),
    ("HNAFLSVTTV [PDZRN4, Q6ZMN7]", 3.58),
    ("NRKREIFSNF [NHERF2, Q15599]", "below the threshold"),
    ("SDSSGQEYSL [KCTD3, Q9Y597]", "below the threshold"),
    ("LSDPSVSTVV [GRIN1, Q05586;Q05586-2]", "below the threshold"),
    ("RRRKRKRTYL [HPV49-L2, P36762]", 5.4),
    ("ESLLLGPSNF [SHROOM4, Q9ULL8]", "below the threshold"),
    ("TVICWPGSLV [LNX2, Q8N448]", 4.58),
    ("PSASCAVTAA [PDLIM4, P50479;P50479-2]", "below the threshold"),
]
